Read-out: Interleukin 6 (IL6), IL6 (gene 3569)
Test: LTEA_HepaRG_IL6: Life Technologies and Expression Analysis (LTEA) Assay for Interleukin 6 (IL6) using HepaRG (AID 2283509)
Details: mRNA level, 48 h; actives raise or lower the signal
Active and inactive are the calls of the source. The calls were made as follows: active = hit-call score of the fitted dose curve at least 0.9, where 1 is the maximum; inactive = score below 0.9.
Labels: active, inactive

[
  {
    "Compound": "CCOC(=O)CC(O)(CC(=O)OCC)C(=O)OCC",
    "Assigned Class": "inactive"
  },
  {
    "Compound": "O=C(OCCOCCOC(=O)c1ccccc1)c1ccccc1",
    "Assigned Class": "inactive"
  },
  {
    "Compound": "CC[C@H](c1ccc(O)cc1)[C@@H](CC)c1ccc(O)cc1",
    "Assigned Class": "active"
  },
  {
    "Compound": "NC(=O)N1C(=O)C(C(=O)c2cc(Cl)cs2)c2cc(F)c(Cl)cc21 (stereo not given)",
    "Assigned Class": "active"
  },
  {
    "Compound": "c1ccc2c(c1)Cc1ccccc1-2",
    "Assigned Class": "inactive"
  },
  {
    "Compound": "CCCCOCCO",
    "Assigned Class": "inactive"
  },
  {
    "Compound": "CCC(=C(c1ccc(O)cc1)c1ccc(OCCN(C)C)cc1)c1ccccc1",
    "Assigned Class": "active"
  },
  {
    "Compound": "CCCCCCCC(=O)O",
    "Assigned Class": "inactive"
  },
  {
    "Compound": "c1ccc2c(c1)ccc1ccccc12",
    "Assigned Class": "inactive"
  },
  {
    "Compound": "Cc1oc(-c2ccccc2)nc1CCOc1ccc(C[C@H](Nc2ccccc2C(=O)c2ccccc2)C(=O)O)cc1",
    "Assigned Class": "active"
  },
  {
    "Compound": "C=C(C)C(=O)OCCC(F)(F)C(F)(F)C(F)(F)C(F)(F)C(F)(F)C(F)(F)F",
    "Assigned Class": "inactive"
  },
  {
    "Compound": "COCC(C)O (stereo not given)",
    "Assigned Class": "inactive"
  },
  {
    "Compound": "COC(=O)CCCCC(=O)OC",
    "Assigned Class": "inactive"
  },
  {
    "Compound": "CC(C)CCCCCCOC(=O)CCCCC(=O)OCCCCCCC(C)C",
    "Assigned Class": "inactive"
  },
  {
    "Compound": "CCN(CC)CCNc1ccc(CNC=O)c2sc3ccc(OC)cc3c(=O)c12",
    "Assigned Class": "active"
  }
]

###

Experiment: ATG_TA_CIS: Attagene CIS-FACTORIAL HepG2 Assay for human TA Basal Promoter (AID 2282964)
Conditions: HepG2 Attagene CIS-factorial TA basal promoter reporter; actives raise or lower the signal
The source made the active and inactive calls. The calls were made as follows: active = hit-call score of the fitted dose curve at least 0.9, where 1 is the maximum; inactive = score below 0.9.
Labels: active, inactive

[
  {
    "Compound": "CCCCC(CC)COC(=O)CCCCC(=O)OCC(CC)CCCC (stereo unspecified)",
    "Assigned Class": "inactive"
  },
  {
    "Compound": "COc1ccc([N+](=O)[O-])cc1N",
    "Assigned Class": "inactive"
  },
  {
    "Compound": "c1ccc2c(c1)Cc1ccccc1-2",
    "Assigned Class": "inactive"
  },
  {
    "Compound": "CCCOc1sc(C(=O)N2CCC(c3cc(CN)ccc3F)CC2)c(C)c1Br",
    "Assigned Class": "inactive"
  },
  {
    "Compound": "CC(C)(C)c1cccc(C(C)(C)C)c1O",
    "Assigned Class": "inactive"
  },
  {
    "Compound": "O=C(/C=C/c1ccc(O)cc1)CC(=O)/C=C/c1ccc(O)cc1",
    "Assigned Class": "inactive"
  },
  {
    "Compound": "CC(C)(C)CC(C)(C)c1ccc(O)c(-n2nc3ccccc3n2)c1",
    "Assigned Class": "inactive"
  },
  {
    "Compound": "Oc1cc2ccccc2c2ccccc12",
    "Assigned Class": "inactive"
  },
  {
    "Compound": "CN1CCN(c2ccccc2/C=C2\\SCCN(c3ccc(Cl)c(Cl)c3)C2=O)CC1",
    "Assigned Class": "inactive"
  },
  {
    "Compound": "CCCCC[C@H](O)CC(=O)CCc1ccc(O)c(OC)c1",
    "Assigned Class": "inactive"
  },
  {
    "Compound": "COCC(C)OCC(C)O (stereo unspecified)",
    "Assigned Class": "inactive"
  },
  {
    "Compound": "CCCCCCCCCCCCCC[N+](C)(C)C",
    "Assigned Class": "inactive"
  },
  {
    "Compound": "C=C(C)C(=O)OCCC(F)(F)C(F)(F)C(F)(F)C(F)(F)C(F)(F)C(F)(F)F",
    "Assigned Class": "inactive"
  },
  {
    "Compound": "CCCCCCCCCCCCN1CCCC1=O",
    "Assigned Class": "inactive"
  },
  {
    "Compound": "OCCC(F)(F)C(F)(F)C(F)(F)C(F)(F)C(F)(F)C(F)(F)F",
    "Assigned Class": "inactive"
  },
  {
    "Compound": "CCCCC(CC)COC(=O)CCCCC(=O)OCc1ccccc1 (stereo unspecified)",
    "Assigned Class": "inactive"
  },
  {
    "Compound": "O=C(OCCOCCOC(=O)c1ccccc1)c1ccccc1",
    "Assigned Class": "inactive"
  },
  {
    "Compound": "O=[N+]([O-])c1ccc(O)cc1",
    "Assigned Class": "inactive"
  },
  {
    "Compound": "OC1CCCCC1",
    "Assigned Class": "inactive"
  },
  {
    "Compound": "COc1cc(CCC(=O)CC(=O)CCc2ccc(O)c(OC)c2)ccc1O",
    "Assigned Class": "inactive"
  },
  {
    "Compound": "CCC(C)(C)C1CCC(O)CC1 (stereo unspecified)",
    "Assigned Class": "inactive"
  },
  {
    "Compound": "O=c1c(-c2ccc(O)cc2)coc2cc(O)ccc12",
    "Assigned Class": "inactive"
  },
  {
    "Compound": "N#C[C@@H]1CC(F)(F)CN1C(=O)CNC1CC2CCC(C1)N2c1ncccn1 (stereo partly specified)",
    "Assigned Class": "inactive"
  },
  {
    "Compound": "Cc1ccc(S(=O)(=O)O)c(C)c1",
    "Assigned Class": "inactive"
  },
  {
    "Compound": "O=C(O)c1ccccc1C(c1ccc(O)cc1)c1ccc(O)cc1",
    "Assigned Class": "inactive"
  },
  {
    "Compound": "c1ccc2c(c1)ccc1ccccc12",
    "Assigned Class": "inactive"
  },
  {
    "Compound": "C[C@@H]1C[C@H]2[C@@H]3CCC4=CC(=O)C=C[C@]4(C)[C@@]3(F)[C@@H](O)C[C@]2(C)[C@@]1(O)C(=O)COP(=O)(O)O",
    "Assigned Class": "inactive"
  },
  {
    "Compound": "CCOC(=O)CC(O)(CC(=O)OCC)C(=O)OCC",
    "Assigned Class": "inactive"
  },
  {
    "Compound": "C#C[C@]1(O)CC[C@H]2[C@@H]3CCC4=CC(=O)CC[C@@H]4[C@H]3CC[C@@]21C",
    "Assigned Class": "inactive"
  },
  {
    "Compound": "CCc1nn(C2CCCCC2)c2cc(C3(C#N)CCC(C(=O)O)CC3)ccc12 (stereo unspecified)",
    "Assigned Class": "active"
  },
  {
    "Compound": "NC(=O)N(O)[C@@H]1C=C[C@H](Oc2cccc(Oc3ccc(F)cc3)c2)C1",
    "Assigned Class": "inactive"
  },
  {
    "Compound": "CC[C@H](c1ccc(O)cc1)[C@@H](CC)c1ccc(O)cc1",
    "Assigned Class": "inactive"
  },
  {
    "Compound": "Cc1cc(CCN2CCN(c3nsc4ccccc34)CC2)cc2c1NC(=O)CC2(C)C",
    "Assigned Class": "inactive"
  },
  {
    "Compound": "CCN(CC)CCNc1ccc(CNC=O)c2sc3ccc(OC)cc3c(=O)c12",
    "Assigned Class": "inactive"
  },
  {
    "Compound": "CC(O)CO (stereo unspecified)",
    "Assigned Class": "inactive"
  },
  {
    "Compound": "OC1CCC(C2CCCCC2)CC1 (stereo unspecified)",
    "Assigned Class": "inactive"
  },
  {
    "Compound": "CN(C)C=O",
    "Assigned Class": "inactive"
  },
  {
    "Compound": "CCc1ccc(CCOc2ccc(CC3SC(=O)NC3=O)cc2)nc1 (stereo unspecified)",
    "Assigned Class": "inactive"
  },
  {
    "Compound": "Oc1cccc(O)c1",
    "Assigned Class": "inactive"
  },
  {
    "Compound": "CC(O)C(=O)O (stereo unspecified)",
    "Assigned Class": "inactive"
  },
  {
    "Compound": "CC[C@H](C)[C@@H](C(=O)O)n1sc2ccccc2c1=O",
    "Assigned Class": "inactive"
  }
]
